Values compiled from PubChem BioAssay (EPA / NIEHS).

EXPERIMENTAL_DETAILS: CCTE_Shafer_MEA_dev_mutual_information_norm: CCTE's Neural Network Formation Assay for Mutual Information Normalization, Shafer Lab (AID 2284091)
Active and inactive are the calls of the source. How the source made its calls: active means hit-call score of the fitted dose curve at least 0.9, where 1 is the maximum; inactive means score below 0.9.
Hello, when you answer, please use one of the following outcomes: label 1 = active, label 0 = inactive

For OCCC(F)(F)C(F)(F)C(F)(F)C(F)(F)C(F)(F)C(F)(F)C(F)(F)C(F)(F)F , which call appears in the assay record? label 0

For CC(O)CO (stereo not drawn) , which call appears in the assay record? label 0

For c1ccc2c(c1)ccc1ccccc12 , which call appears in the assay record? label 0

For c1ccc2c(c1)Cc1ccccc1-2 , which call appears in the assay record? label 0

For CC1=C(/C=C/C(C)=C/C=C/C(C)=C/C(=O)O)C(C)(C)CCC1 , which call appears in the assay record? label 1

For CN1CCC[C@H]1c1cccnc1 , which call appears in the assay record? label 0

For c1ccc2cc3c(ccc4ccccc43)cc2c1 , which call appears in the assay record? label 0

For C=C(C)C(=O)OCCC(F)(F)C(F)(F)C(F)(F)C(F)(F)C(F)(F)C(F)(F)F , which call appears in the assay record? label 0
